All values here come from patent US11019818B2.

Test system: ryegrass, Italian (Italian ryegrass, Lolium multiflorum)
assay-procedure: Test A preemergence, Italian ryegrass
Assay type: in vivo
assay-conditions: 125 g ai/ha, 0 to 100 scale (0 no effect, 100 complete control), approx. 10 d
Reported Plant response rating, Ryegrass, Italian values for a set of compounds
// print number alone

{"columns": ["compound", "recorded-endpoint", "data-value"],
 "data": [
  ["CC(=O)[C@@]1(C(=O)Nc2cccc(F)c2F)C(=O)N(C)C[C@@H]1c1ccc(C(F)(F)F)cc1 [Compound 1]", "Plant response rating, Ryegrass, Italian", 60],
  ["CN1C[C@H](c2ccc(C(F)(F)F)cc2)[C@](CO)(C(=O)Nc2cccc(F)c2F)C1=O [Compound 4]", "Plant response rating, Ryegrass, Italian", 50],
  ["CC(=O)OC[C@@]1(C(=O)Nc2cccc(F)c2F)C(=O)N(C)C[C@@H]1c1ccc(C(F)(F)F)cc1 [Compound 2]", "Plant response rating, Ryegrass, Italian", 10],
  ["CC(C)NC(=O)C1(C(=O)Nc2cccc(F)c2F)C(=O)N(C)CC1c1ccc(C(F)(F)F)cc1 (stereo not shown) [Compound 8]", "Plant response rating, Ryegrass, Italian", 0],
  ["CCNC(=O)C1(C(=O)Nc2cccc(F)c2F)C(=O)N(C)CC1c1ccc(C(F)(F)F)cc1 (stereo not shown) [Compound 7]", "Plant response rating, Ryegrass, Italian", 0],
  ["CN(C)CC1(C(=O)Nc2cccc(F)c2F)C(=O)N(C)CC1c1ccc(C(F)(F)F)cc1 (stereo not shown) [Compound 9]", "Plant response rating, Ryegrass, Italian", 80]
]}

Here is the next item to consider.
Enquiry: Provide Plant response rating, Ryegrass, Italian value for the following compound: CN1C[C@H](c2ccc(C(F)(F)F)cc2)[C@@](CO)(C(=O)Nc2cccc(F)c2F)C1=O [Compound 5]
Return: 80
